- assay.remarks: recombinant UMI read abundance after kanamycin selection (control-corrected) (log10(CPM+1)); higher = more efficient recombination; extreme values may be limits of the assay; sequences stand for … in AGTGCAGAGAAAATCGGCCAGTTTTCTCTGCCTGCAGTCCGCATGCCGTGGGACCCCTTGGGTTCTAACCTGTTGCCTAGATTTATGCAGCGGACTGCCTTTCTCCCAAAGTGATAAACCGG…AGGTTGGTTTCACT; site = the 11-nt donor
reported.metric: recombinant UMI read abundance (log10)

[[record]]
query_sequence = "GATTATCCATGGACCGGTTTTCCCGGTAATCCGTATTTGCT (site GATTATTCTAG)"
reported_value = 0

[[record]]
query_sequence = "TGTGTAACATGGACCGGTTTTCCCGGTAATCCGTATTTGAC (site TGTGTAACTGT)"
reported_value = 0

[[record]]
query_sequence = "TGATAATCATGGACCGGTTTTCCCGGTAATCCGTATTTGCT (site TGATAATCTAG)"
reported_value = 2.45

[[record]]
query_sequence = "CCCTAGCCATGGACCGGTTTTCCCGGTAATCCGTATTTGCC (site CCCGAGCCTGG)"
reported_value = 0

[[record]]
query_sequence = "AATGTGTCATGGACCGGTTTTCCCGGTAATCCGTATTTGAC (site ACTGTGTCTGT)"
reported_value = 0


---

- assay.remarks: recombinant barcode read abundance after kanamycin selection (control-corrected) (log10(CPM+1)); higher = more efficient recombination; sequences stand for … in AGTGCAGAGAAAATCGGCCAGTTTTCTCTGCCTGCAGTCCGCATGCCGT…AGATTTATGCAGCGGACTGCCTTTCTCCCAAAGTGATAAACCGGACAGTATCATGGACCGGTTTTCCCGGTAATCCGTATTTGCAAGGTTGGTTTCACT; site = the 11-nt target
Class key for recombinant barcode read abundance (log10) values: c1 = under 0.2, c2 = from 0.2 up to 0.9, c3 = 0.9 and over

[[record]]
query_sequence = "TGGACTACTTGGGTTCTAACCTGTTGCTC (site CTACAACCTCT)"
answer_label = "c2"

[[record]]
query_sequence = "GAAACAGCTTGGGTTCTAACCTGTTGCCT (site GATACAGCTAG)"
answer_label = "c1"

[[record]]
query_sequence = "ACGATTCCTTGGGTTCTAACCTGTTGCTT (site ACGAGTCCTAA)"
answer_label = "c1"

[[record]]
query_sequence = "TTAACTACTTGGGTTCTAACCTGTTGCTC (site TTAACTACTTA)"
answer_label = "c1"

[[record]]
query_sequence = "CGATCACCTTGGGTTCTAACCTGTTGCCT (site TTCGGCTCTTA)"
answer_label = "c2"

[[record]]
query_sequence = "TGGTGCGCTTGGGTTCTAACCTGTTGCCT (site TGGTGCGCTAG)"
answer_label = "c3"

[[record]]
query_sequence = "CGTACCTCTTGGGTTCTAACCTGTTGCTA (site CGTACCTCTTA)"
answer_label = "c1"

[[record]]
query_sequence = "GTATCTCCTTGGGTTCTAACCTGTTGCGG (site GTCTCACCTCC)"
answer_label = "c1"

[[record]]
query_sequence = "TAGTGGCCTTGGGTTCTAACCTGTTGCCA (site TAGTGGCCTTG)"
answer_label = "c2"

[[record]]
query_sequence = "GTGAGGTCTTGGGTTCTAACCTGTTGCGT (site GTGAGGTCTAA)"
answer_label = "c2"

[[record]]
query_sequence = "ATCCTAGCTTGGGTTCTAACCTGTTGCCG (site ATCCTAGCTCG)"
answer_label = "c3"

[[record]]
query_sequence = "GAGAGTACTTGGGTTCTAACCTGTTGCAT (site GAGAGTACTAT)"
answer_label = "c3"

[[record]]
query_sequence = "CTATCCTCTTGGGTTCTAACCTGTTGCAT (site CTACCCTCTAT)"
answer_label = "c3"

[[record]]
query_sequence = "CTAGTAACTTGGGTTCTAACCTGTTGCCA (site CTAGTAACTTG)"
answer_label = "c2"

[[record]]
query_sequence = "AGCCCTCCTTGGGTTCTAACCTGTTGCTT (site AGCCCTCCTGA)"
answer_label = "c1"

[[record]]
query_sequence = "TATTGGCCTTGGGTTCTAACCTGTTGCGT (site ACGACTACTCG)"
answer_label = "c1"

[[record]]
query_sequence = "AGAGGGTCTTGGGTTCTAACCTGTTGCCT (site AAAGGGTCTAG)"
answer_label = "c2"

[[record]]
query_sequence = "TCTTCGACTTGGGTTCTAACCTGTTGCAG (site GGAAAAGCTAA)"
answer_label = "c1"

[[record]]
query_sequence = "TGTATGACTTGGGTTCTAACCTGTTGCCT (site AGTATGACTAG)"
answer_label = "c2"

[[record]]
query_sequence = "GTCTCCTCTTGGGTTCTAACCTGTTGCCT (site GTCTCCTCTAG)"
answer_label = "c3"

[[record]]
query_sequence = "GACTCTCCTTGGGTTCTAACCTGTTGCTG (site GACTCTCCTCA)"
answer_label = "c1"

[[record]]
query_sequence = "TCAAGACCTTGGGTTCTAACCTGTTGCCT (site TCAAGACCTCG)"
answer_label = "c1"

[[record]]
query_sequence = "GTCCATTCTTGGGTTCTAACCTGTTGCAT (site GTCCATTCTAT)"
answer_label = "c3"

[[record]]
query_sequence = "TCTGATTCTTGGGTTCTAACCTGTTGCGT (site TCTAATTCTAC)"
answer_label = "c2"

[[record]]
query_sequence = "ACCTTACCTTGGGTTCTAACCTGTTGCGT (site ACCTTACCTAC)"
answer_label = "c3"

[[record]]
query_sequence = "CGACCCTCTTGGGTTCTAACCTGTTGCCT (site CGACCCTCTAG)"
answer_label = "c3"

[[record]]
query_sequence = "CTCCAGGCTTGGGTTCTAACCTGTTGCGG (site CTCAAGGCTAC)"
answer_label = "c2"

[[record]]
query_sequence = "TGCTGATCTTGGGTTCTAACCTGTTGCCT (site TGCTGATCTAG)"
answer_label = "c2"

[[record]]
query_sequence = "TTATTGTCTTGGGTTCTAACCTGTTGCCT (site TTCTTGCCTAG)"
answer_label = "c1"

[[record]]
query_sequence = "CCAGTAACTTGGGTTCTAACCTGTTGCCT (site CCAGTCACTAG)"
answer_label = "c1"

[[record]]
query_sequence = "TGGAGTCCTTGGGTTCTAACCTGTTGCCT (site TGGCGTCCTAG)"
answer_label = "c1"

[[record]]
query_sequence = "ACTGTCACTTGGGTTCTAACCTGTTGCCT (site ACTGTCACTAG)"
answer_label = "c3"

[[record]]
query_sequence = "ACATTTCCTTGGGTTCTAACCTGTTGCCT (site ACATTTCCTAG)"
answer_label = "c1"

[[record]]
query_sequence = "TAGGATCCTTGGGTTCTAACCTGTTGCGA (site TAGGATCCTTC)"
answer_label = "c3"

[[record]]
query_sequence = "TGGCTAGCTTGGGTTCTAACCTGTTGCAC (site TGGCTAGCTGT)"
answer_label = "c3"

[[record]]
query_sequence = "CAATGGTCTTGGGTTCTAACCTGTTGCTT (site CAATGGTCTAC)"
answer_label = "c3"

[[record]]
query_sequence = "TAGTGTACTTGGGTTCTAACCTGTTGCCT (site TAGTGTCCTAG)"
answer_label = "c1"

[[record]]
query_sequence = "AAGGTCGCTTGGGTTCTAACCTGTTGCCT (site AAGGCCGCTAG)"
answer_label = "c3"

[[record]]
query_sequence = "TAACCTACTTGGGTTCTAACCTGTTGCTA (site TAACCTACTTA)"
answer_label = "c2"

[[record]]
query_sequence = "AAGTGAGCTTGGGTTCTAACCTGTTGCCA (site CTCCTCTCTAT)"
answer_label = "c1"


---

- assay.remarks: recombinant UMI read abundance after kanamycin selection (control-corrected) (log10(CPM+1)); higher = more efficient recombination; extreme values may be limits of the assay; sequences stand for … in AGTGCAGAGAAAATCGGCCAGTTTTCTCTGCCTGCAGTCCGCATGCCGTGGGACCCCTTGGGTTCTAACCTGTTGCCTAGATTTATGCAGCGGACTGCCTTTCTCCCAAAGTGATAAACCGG…AGGTTGGTTTCACT; site = the 11-nt donor
// label = Criterion met if recombinant UMI read abundance (log10) is not less than 0.004, otherwise Criterion not met

[[record]]
query_sequence = "CAAGATTCATGGACCGGTTTTCCCGGTAATCCGTATTTGTT (site GAAGATTCTAA)"
answer_label = "Criterion not met"

[[record]]
query_sequence = "GTCCCTACATGGACCGGTTTTCCCGGTAATCCGTATTTGAG (site TTCCCTACTCT)"
answer_label = "Criterion met"

[[record]]
query_sequence = "GACTTTCCATGGACCGGTTTTCCCGGTAATCCGTATTTGAC (site GACTTTCCTGT)"
answer_label = "Criterion met"

[[record]]
query_sequence = "ACCTAGACATGGACCGGTTTTCCCGGTAATCCGTATTTGGG (site ACCTATACTCC)"
answer_label = "Criterion met"

[[record]]
query_sequence = "CCCATATCATGGACCGGTTTTCCCGGTAATCCGTATTTGTC (site CCCATAACTGA)"
answer_label = "Criterion not met"

[[record]]
query_sequence = "AAAAAGGCATGGACCGGTTTTCCCGGTAATCCGTATTTGCT (site AAAAAGGCTAG)"
answer_label = "Criterion met"

[[record]]
query_sequence = "GTTCCTACATGGACCGGTTTTCCCGGTAATCCGTATTTGCT (site GTTCCTACTAG)"
answer_label = "Criterion met"

[[record]]
query_sequence = "AAGGTCACATGGACCGGTTTTCCCGGTAATCCGTATTTGGA (site AAGGTCACTTC)"
answer_label = "Criterion met"

[[record]]
query_sequence = "AGCGGTCCATGGACCGGTTTTCCCGGTAATCCGTATTTGAC (site AGCGGTCCTGT)"
answer_label = "Criterion not met"

[[record]]
query_sequence = "AACTAAGCATGGACCGGTTTTCCCGGTAATCCGTATTTGGT (site AACTAAGCTAC)"
answer_label = "Criterion met"

[[record]]
query_sequence = "TACTTGGCATGGACCGGTTTTCCCGGTAATCCGTATTTGCT (site TACTTGTCTAG)"
answer_label = "Criterion not met"

[[record]]
query_sequence = "CCCTAGGCATGGACCGGTTTTCCCGGTAATCCGTATTTGCC (site CCCTAGACTGG)"
answer_label = "Criterion not met"

[[record]]
query_sequence = "GTCGGCACATGGACCGGTTTTCCCGGTAATCCGTATTTGAC (site GTCGGCACTGT)"
answer_label = "Criterion met"

[[record]]
query_sequence = "GCTTGCCCATGGACCGGTTTTCCCGGTAATCCGTATTTGAT (site GCTTGCGCTAT)"
answer_label = "Criterion not met"

[[record]]
query_sequence = "AGGACTACATGGACCGGTTTTCCCGGTAATCCGTATTTGAC (site ACGACTACTGT)"
answer_label = "Criterion met"

[[record]]
query_sequence = "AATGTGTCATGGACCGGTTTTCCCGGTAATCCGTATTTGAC (site AATGTGTCTGG)"
answer_label = "Criterion not met"

[[record]]
query_sequence = "ACCTGGACATGGACCGGTTTTCCCGGTAATCCGTATTTGGG (site ACCTCGACTCC)"
answer_label = "Criterion met"

[[record]]
query_sequence = "GGTTCGTCATGGACCGGTTTTCCCGGTAATCCGTATTTGTT (site GGTGCGTCTAA)"
answer_label = "Criterion not met"

